value type: IC50

The measured IC50 that "COc1ccc(-c2nnc(Nc3nc4c(F)cccc4s3)o2)cc1" showed for STEP (Homo sapiens) is > 100 µM

====

Tested on: PTP-SL
Assay: PTP selectivity profiling
Type: biochemical
value type: IC50 (µM)
Respond with the bare value in µM.

The measured IC50 that COc1ccc(-c2nnc(Nc3nc4c(F)cccc4s3)o2)cc1 [MLS-0437605] showed for PTP-SL is 13

====

value type: pIC50
pIC50 is a log-scale quantity: -log10 of the concentration expressed in molar.

The measured pIC50 that COc1ccc(-c2nnc(Nc3nc4c(F)cccc4s3)o2)cc1 [MLS-0437605] showed for LYP (Homo sapiens, UniProt Q9Y2R2) is 4.31
